# System: A549
# assay_notes: NCI tumour cell line growth inhibition, 48 h
The source made the active and inactive calls. Cut-off read from the data, not from the text of the source: active = GI50 up to about 1.1 µM and inactive = higher.
Write down one outcome, taken from active, inactive

Assay outcome for CCOC(=O)NC(=O)c1cn(CCSCCOC(=O)NCCCCCCNC(=O)OCCSCCn2cc(C(=O)NC(=O)OCC)c(=O)[nH]c2=O)c(=O)[nH]c1=O : what was it?
inactive

Assay outcome for COc1cc(-c2cc(=O)c3c(OC)c(OC)c(OC)c(OC)c3o2)cc(OC)c1OC : what was it?
inactive

Assay outcome for CN(C)Cc1cc(/N=N/c2ccc(Cl)c(Cl)c2)ccc1O : what was it?
inactive

Assay outcome for O=C(CC(C(=O)c1ccsc1)c1cccs1)c1ccccc1 (stereo not given) : what was it?
inactive

Assay outcome for CC1(C)N=[N+]([O-])C1(C)C : what was it?
inactive

Assay outcome for Cc1cc(C)c(S(=O)(=O)N2CCCN(S(=O)(=O)c3c(C)cc(C)cc3C)OCCCON(S(=O)(=O)c3c(C)cc(C)cc3C)CCCN(S(=O)(=O)c3c(C)cc(C)cc3C)OCCCO2)c(C)c1 : what was it?
inactive

Assay outcome for COc1nc(N)nc2nc[nH]c12 : what was it?
inactive

Assay outcome for CCCc1nc(NC#N)nc(C(=O)Nc2ccccc2)c1CC : what was it?
inactive

Assay outcome for Cc1c(-c2ccccc2)n(C)c2cn[nH]c(=O)c12 : what was it?
inactive

Assay outcome for Cc1ccsc1C(=O)C(CC(=O)c1cccs1)c1ccsc1 (stereo not given) : what was it?
inactive

Assay outcome for O=C1/C(=C/c2ccccc2Cl)COc2ccc(Br)cc21 : what was it?
inactive

Assay outcome for CC(C)(C)C(=O)C(C#N)C(=O)C(C)(C)C : what was it?
inactive

Assay outcome for NC(CSCc1ccc(I)cc1)C(=O)O (stereo not given) : what was it?
inactive

Assay outcome for COC(=O)[C@@H](C)[C@H]1CC[C@@](C)(CCC2=C(C)CC3C=C(C)CCC3C2(C)C)OO1 (stereo not given in full) : what was it?
inactive

Assay outcome for O=C(OC[C@H]1O[C@@H](OC(=O)c2cc(O)c(O)c(O)c2)[C@H](OC(=O)c2cc(O)c(O)c(O)c2)[C@@H](OC(=O)c2cc(O)c(O)c(O)c2)[C@@H]1OC(=O)c1cc(O)c(O)c(O)c1)c1cc(O)c(O)c(O)c1 : what was it?
inactive

Assay outcome for Cc1cc(=O)oc2c(CNC(Cc3ccccc3)C(=O)O)c(O)ccc12 (stereo not given) : what was it?
inactive

Assay outcome for C=CCNC1=C2C[C@@H](C)C[C@H](OC)[C@H](O)[C@@H](C)/C=C(\C)[C@H](OC(N)=O)[C@@H](OC)/C=C\C=C(/C)C(=O)NC(=CC1=O)C2=O : what was it?
active

Assay outcome for COc1ccccc1C(O)[C@@H]1C[C@@H]2[C@H]3CC[C@@](C)([C@@H]2O1)C3(C)C (stereo not given in full) : what was it?
inactive

Assay outcome for COC(=O)c1cccc(C(=O)OC)c1 : what was it?
inactive

Assay outcome for O=C1OC(c2ccc(Cl)cc2)(c2ccc(Cl)cc2)c2c1ccc1ccccc21 : what was it?
inactive

Assay outcome for COc1cc(C=C(c2ccc(N(C)C)cc2)c2ccc(N(C)C)cc2)c2ccccc2c1OC : what was it?
inactive

Assay outcome for COC(=O)C[C@H]1CCC2(OCCO2)[C@]1(C)C(=O)OC : what was it?
inactive

Assay outcome for CN1C(NCCO)=NS(=O)(=O)c2ccccc21 : what was it?
inactive

Assay outcome for CCCCCCCC(=O)OC[n+]1ccc(-c2c(COC(=O)NC(C)C)c(COC(=O)NC(C)C)c3n2CCC3)cc1 : what was it?
inactive

Assay outcome for CCOC(=O)C1CCC(=O)N1C(=O)c1ccccc1 (stereo not given) : what was it?
inactive

Assay outcome for O=C1CSC(c2ccccc2O)N1c1ccc(Oc2ccc(Cl)cc2)c(Cl)c1 (stereo not given) : what was it?
inactive

Assay outcome for COC(=O)C1CCC(=O)N1CN(C(C)=O)c1cc(OC)ccc1OC (stereo not given) : what was it?
inactive

Assay outcome for O=C1CSC(c2cccc([N+](=O)[O-])c2)N1c1ccc(-c2ccc(-n3c(-c4ccccc4)nc4ccccc4c3=O)cc2)cc1 (stereo not given) : what was it?
inactive

Assay outcome for C/C(=N/NC(=O)c1ccncc1)c1ccc(NC(=O)C(=O)Nn2c(S)nc3ccccc3c2=O)cc1 : what was it?
inactive

Assay outcome for COc1ccc(C(=O)C#Cc2cnc(O)nc2O)cc1 : what was it?
inactive

Assay outcome for CCOC(=O)c1c(C)n(CCN2CCN(C)CC2)c2ccc(OC)cc12 : what was it?
inactive

Assay outcome for Cc1ccc([N+](=O)[O-])cc1S(=O)(=O)Nc1ccc(C2=NNC(c3cccs3)C2)cc1 (stereo not given) : what was it?
inactive

Assay outcome for O=c1c2ccccc2nc2n1NC(c1c(Cl)cccc1Cl)N2c1cccc(Cl)c1 (stereo not given) : what was it?
inactive

Assay outcome for O=C1CCC2(c3ccccc3)Nc3ccncc3N12 (stereo not given) : what was it?
inactive

Assay outcome for Cc1cc(C)c2[s+]snc2c1 : what was it?
inactive
